- measuredTarget: GST-Bcl-B (Homo sapiens, UniProt Q9HD36)
- Sequence (Q9HD36 1-182 limits assumed): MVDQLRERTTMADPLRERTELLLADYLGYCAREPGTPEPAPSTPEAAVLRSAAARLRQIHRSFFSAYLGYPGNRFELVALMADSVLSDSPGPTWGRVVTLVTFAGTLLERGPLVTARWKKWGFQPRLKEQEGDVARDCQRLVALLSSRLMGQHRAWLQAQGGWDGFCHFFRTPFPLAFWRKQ
- assayNotes: biochemical
measuredMetric: log10(IC50) (log10 of the value in µM)

Nc1ccc(S(=O)(=O)O)c2cccc(O)c12 [Compound 5265894]; 0.02
Cc1cc(C)nc(NC(=N)Nc2cccc(N)c2)n1 [Compound 5804000]; 1.05
Cc1ccc(C)n1-c1ccc(C(=O)O)c(Cl)c1 [Compound 5956338]; 1.00
Cn1c(=O)cc2c3c(c(Nc4ccc(C=O)cc4)ccc31)C(=O)c1ccccc1-2 [Compound 5719776]; 0.91
COc1ccc(Nc2ccc(N)cc2)cc1 [Compound 5529774]; 0.86
COc1ccccc1NC(=O)C1=C(C)NC(SCC(=O)c2ccc(Br)cc2)=C(C#N)C1c1ccco1 (centres unmarked) [Compound 5570547]; 0.80
O=C(O)C1Nc2c(cccc2[N+](=O)[O-])C2C=CCC12 (centres unmarked) [Compound 5665283]; 0.08
Cc1ccc(C)n1-c1ccc(OCC(=O)O)cc1 [Compound 5988031]; 0.94
O=C(O)c1ccc([N+](=O)[O-])c2c1NC(c1ccccc1)C1CC=CC21 (centres unmarked) [Compound 5853021]; 0.59
COC(=O)C1=C(C)N(C)C(=O)NC1c1cc2c(cc1[N+](=O)[O-])OCO2 (centres unmarked) [Compound 5607960]; 1.24
CCSc1nc(NN)c2c3c(sc2n1)CN(C)CC3 [Compound 5683054]; 0.87
O=C(O)C1C2CC=CC2c2cc(Oc3ccccc3)cc3c2N1CC1CC=CC31 (centres unmarked) [Compound 5840196]; 0.62
O=C(O)C1Nc2c(C(=O)N3CCCC3)cccc2C2C=CCC12 (centres unmarked) [Compound 5947449]; 0.69
O=C1C=CC(=O)C(/C(=C/NCc2ccccc2)[N+](=O)[O-])=C1 [Compound 5261378]; 0.76
Cc1ccc(C)n1-c1ccccc1C(=O)O [Compound 5959185]; -0.21
Oc1ccc(Nc2nc(-c3ccccn3)cs2)cc1 [Compound 5662807]; 0.57
COc1cc(C2Nc3ccc4ccccc4c3C3=C2C(=O)CC(C)(C)C3)c(Br)cc1O (centres unmarked) [Compound 5660965]; 1.12
CN(C)c1ccc(NC(=O)/C=C\C(=O)O)cc1 [Compound 5374579]; 1.31
CC(=O)c1cc(C#N)c(SCC(=O)c2ccc(O)c(O)c2)nc1C [Compound 6033363]; 1.04
Cc1ccc2oc3cc(NCCCN(C)C)c4c(=O)c5ccccc5c(=O)c4c3[nH]c2c1 [Compound 5468863]; -0.17
COc1cc(N)ccc1-n1c(C)ccc1C [Compound 5953790]; 1.52
O=C(O)c1cccc(-c2ccc(/C=N/Nc3ccc([N+](=O)[O-])cn3)o2)c1 [Compound 5908920]; 0.98
O=C1C(=Cc2cn(Cc3ccc(Cl)cc3)c3ccccc23)C(=O)c2ccccc21 [Compound 5603089]; 1.16
